Values were extracted from patent US20240279318A1.

Please provide measured pKd for the entries that follow.
target: T1, AFP158/HLA-A*02:01 complex (human); experiment: SPR, crude scFv captured, pMHC analyte;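 also: Peptide-MHC complex at several concentrations passed over captured scFv, association then buffer-driven dissociation, on- and off-rates fitted from the curves and KD estimated from them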
T1 construct: flowed as analyte in SPR
Please keep in mind that pKd is minus log10 of the molar concentration; only the number is needed.

Challenge: // query pKd value for entry AS170036 VL1VH1-VHS57Q (scFv) scFv: QSALTQPRSVSGSPGQSVTISCAGTSSDVGSENYVSWYQQHPGKAPKLMIYQVNKRASGVPDRFSGSKSGNTASLTISGLQAEDEADYYCASYRSSDHNIVFGGGTKLTVLGGGGSGGGGSGGGGSEVQLVESGGGLVQPGGSLRLSCAASGFTFSSYAMSWVRQAPGKGLEWVSTINSGTGQPYYADSVKGRFTISRDNSKNTLYLQMNSLRAEDTAVYYCAKNFFDGSWFLGPPAMDYWGQGTLVTVSSHHHHHH
Response given: 7.00

Challenge: GET /values?readout=pKd&item= AS170036 VL1VH1-VHG108D (scFv) scFv: QSALTQPRSVSGSPGQSVTISCAGTSSDVGSENYVSWYQQHPGKAPKLMIYQVNKRASGVPDRFSGSKSGNTASLTISGLQAEDEADYYCASYRSSDHNIVFGGGTKLTVLGGGGSGGGGSGGGGSEVQLVESGGGLVQPGGSLRLSCAASGFTFSSYAMSWVRQAPGKGLEWVSTINSGTGSPYYADSVKGRFTISRDNSKNTLYLQMNSLRAEDTAVYYCAKNFFDGSWFLDPPAMDYWGQGTLVTVSSHHHHHH
Response given: 7.38
